Known log10 IC50 of a selection of compounds
# targetOrSystem: Programmed cell death protein 1/Programmed cell death 1 ligand 1 (Homo sapiens, UniProt Q9NZQ7)
# Sequence (Q15116 whole entry): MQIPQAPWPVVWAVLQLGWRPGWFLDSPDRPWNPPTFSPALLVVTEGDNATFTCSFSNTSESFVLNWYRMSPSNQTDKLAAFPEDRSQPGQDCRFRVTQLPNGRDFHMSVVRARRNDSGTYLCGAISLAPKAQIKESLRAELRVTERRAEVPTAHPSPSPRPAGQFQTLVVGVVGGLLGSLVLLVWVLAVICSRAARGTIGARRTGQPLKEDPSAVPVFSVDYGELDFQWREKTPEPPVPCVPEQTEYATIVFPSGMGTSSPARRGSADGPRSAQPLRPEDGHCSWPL
# Sequence (Q9NZQ7 whole entry): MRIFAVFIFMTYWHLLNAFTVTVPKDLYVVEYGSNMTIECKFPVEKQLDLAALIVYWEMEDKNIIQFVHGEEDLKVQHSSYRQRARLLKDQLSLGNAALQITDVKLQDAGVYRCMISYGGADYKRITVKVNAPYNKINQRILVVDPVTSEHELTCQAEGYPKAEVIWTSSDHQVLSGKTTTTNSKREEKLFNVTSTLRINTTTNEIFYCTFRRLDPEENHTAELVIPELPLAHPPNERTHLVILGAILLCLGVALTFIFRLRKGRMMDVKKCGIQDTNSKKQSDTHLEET
# assay: Inhibition of PD-1/PD-L1 (unknown origin) interaction incubated for 15 mins by HTRF assay
# Format: protein-complex assay
Values below are the log10 of the recorded IC50, with µM as the unit.

Observe how each entry below is paired with its result.
COc1nc(OCc2cccc(-c3ccccc3)c2C)ccc1CNCc1cn([C@@H]2OC[C@@H](O)[C@H](O)[C@H]2O)nn1 | -0.96
COc1ccc(CNCc2cn([C@@H]3OC[C@H](O)[C@@H](O)[C@H]3O)nn2)cc1OCc1cccc(-c2ccccc2)c1C | 0.17
COc1ccc(CNCc2cn([C@@H]3OC[C@@H](O)[C@H](O)[C@H]3O)nn2)cc1OCc1cccc(-c2ccccc2)c1C | 0.25
COc1ccc(CNCc2cn([C@H]3O[C@H](CO)[C@@H](O)[C@H](O)[C@@H]3O)nn2)cc1OCc1cccc(-c2ccccc2)c1C | 0.06
COc1nc(OCc2cccc(-c3ccccc3)c2C)ccc1CNCc1cn([C@H]2O[C@H](CO)[C@@H](O)[C@H](O)[C@@H]2O)nn1 | -0.79

Dear colleague, I am looking for the recorded log10 IC50 of the following compound: `COc1nc(OCc2cccc(-c3ccccc3)c2C)ccc1CNCCO[C@@H]1O[C@H](CO)[C@@H](O)[C@H](O)[C@H]1NC(C)=O`
-1.53

Dear colleague, I am looking for the recorded log10 IC50 of the following compound: `COc1cc(OCc2cccc(-c3ccccc3)c2C)cc(OC)c1CNCc1cn([C@@H]2OC[C@H](O)[C@@H](O)[C@H]2O)nn1`
-0.49

Dear colleague, I am looking for the recorded log10 IC50 of the following compound: `COc1cc(OCc2cccc(-c3ccccc3)c2C)cc(OC)c1CNCc1cn([C@@H]2O[C@@H]3CO[C@@H](c4ccccc4)O[C@H]3[C@H](O)[C@H]2O)nn1`
0.04

Dear colleague, I am looking for the recorded log10 IC50 of the following compound: `COc1cc(OCc2cccc(-c3ccccc3)c2C)cc(OC)c1CNCc1cn([C@@H]2OC[C@H](O)[C@H](O)[C@H]2O)nn1`
-0.29

Dear colleague, I am looking for the recorded log10 IC50 of the following compound: `COc1ccc(CNCc2cn([C@@H]3O[C@H](CO)[C@@H](O)[C@H](OC)[C@H]3O)nn2)cc1OCc1cccc(-c2ccccc2)c1C`
-0.42

Dear colleague, I am looking for the recorded log10 IC50 of the following compound: `COc1cc(OCc2cccc(-c3ccccc3)c2C)cc(OC)c1CNCc1cn([C@@H]2OC[C@@H](O)[C@H](O)[C@H]2O)nn1`
-0.45

Dear colleague, I am looking for the recorded log10 IC50 of the following compound: `COc1nc(OCc2cccc(-c3ccccc3)c2C)ccc1CNCc1cn([C@@H]2OC[C@@H](O)[C@@H](O)[C@H]2O)nn1`
-1.00

Dear colleague, I am looking for the recorded log10 IC50 of the following compound: `COc1ccc(CNCc2cn([C@@H]3O[C@@H]4CO[C@@H](c5ccccc5)O[C@H]4[C@H](O)[C@H]3O)nn2)cc1OCc1cccc(-c2ccccc2)c1C`
0.47

Dear colleague, I am looking for the recorded log10 IC50 of the following compound: `COc1ccc(CNCc2cn([C@@H]3O[C@H](CO)[C@@H](O)[C@H](O)[C@H]3NC(C)=O)nn2)cc1OCc1cccc(-c2ccccc2)c1C`
0.04
